src = paper PMC6273799

System: U2OS cells
Assay: MTT cytotoxicity assay, U2OS
Type: cell-based, human
Details: Homo sapiens, U2OS, 48 h, mean ± SD
Method: The anti-proliferative effects of alkaloids were assessed using the MTT assay, as previously described. In brief, 1 × 10^4 cells were seeded in 96-well-plates and incubated with serial dilutions of alkaloids for 48 h (Hela, U2OS) and 72 h (MCF-7). MTT solution was then added and incubated for 2 h. After the addition of DMSO, the plate was read at 570 nm using the Tecan infinite M200 Pro (Tecan, Crailsheim, Germany). All experiments were performed at least three times. […]
READOUT_LABEL: IC50 (µM)
Unit µM implied. Number only.

// below: answered molecules
STRUCTURE_SMILES	ASSAY_SYSTEM	READOUT_LABEL	DISPLAY_UNIT	QUANTITATIVE_READOUT
C[n+]1cc2c3c(ccc2c2ccc4cc5c(cc4c21)OCO5)OCO3	U2OS cells	IC50	µM	0.92
COc1ccc2c(c[n+](C)c3c4cc5c(cc4ccc23)OCO5)c1OC	U2OS cells	IC50	µM	2.88
CN1Cc2c(ccc3c2OCO3)[C@@H]2[C@H]1c1cc3c(cc1C[C@@H]2O)OCO3	U2OS cells	IC50	µM	3.86

// moving on: another record for IC50
Query :: Please list IC50 recorded for the molecule `CC(=O)O[C@H]1C(=O)[C@@]2(C)[C@H]([C@H](OC(=O)c3ccccc3)[C@]3(O)C[C@H](OC(=O)[C@H](O)[C@@H](NC(=O)c4ccccc4)c4ccccc4)C(C)=C1C3(C)C)[C@]1(OC(C)=O)CO[C@@H]1C[C@@H]2O`
Result :: 0.23
